- experiment description: Pharmacokinetics study of KDG-0271 in male CD1 mice (Example 4)
- Assay type: in vivo
- assay conditions: mouse, plasma, 50 mg/kg PO, 1 h, read-out: Concentration PO_Mean
measured parameter: concentration at 1 h
Answer as a quantity: numeral, then unit.

Exercise: Quick one: concentration at 1 h for Cc1n[nH]c2c1C(c1cc(C#CC3CN(C(=O)OC(C)(C)C)C3)cc(CO)c1)(C(C)C)C(C#N)=C(N)O2 (stereo not shown) ?
Key: 857 ng/mL

###

- experiment description: Pharmacokinetics study of KDG-0271 in male CD1 mice (Example 3)
- Format: in vivo
- assay conditions: male CD1 mice, 200 mg/kg IP
measured parameter: AUClast/D (kg·ng·h/mL/mg)
Field: numeric (kg·ng·h/mL/mg). Do not append units.

Exercise: Quick one: AUClast/D for Cc1n[nH]c2c1C(c1cc(C#CC3CN(C(=O)OC(C)(C)C)C3)cc(CO)c1)(C(C)C)C(C#N)=C(N)O2 (stereo not shown) ?
Key: 40.7

###

- experiment description: Pharmacokinetics study of KDG-0388 in male CD1 mice (Example 2)
- Assay type: in vivo
- assay conditions: mouse, plasma; male CD1 mice, 200 mg/kg PO
measured parameter: AUC(0-inf) (ng·h/mL)
Field: numeric (ng·h/mL). Do not append units.

Exercise: Quick one: AUC(0-inf) for Cc1n[nH]c2c1C(c1cc(C#C[C@H]3C[C@@H](NC(=O)OC(C)(C)C)C3)cc(CO)c1)(C(C)C)C(C#N)=C(N)O2 (stereo partly shown) ?
Key: 3400

###

- experiment description: Pharmacokinetics study of KDG-0271 in male CD1 mice (Example 3)
- Format: in vivo
- assay conditions: male, mouse; CD1 mice, plasma, 1 mg/kg IV, 2 h; read-out: Concentration IV_Mean
measured parameter: concentration at 2 h (ng/mL)
Field: numeric (ng/mL). Do not append units.

Exercise: Quick one: concentration at 2 h for Cc1n[nH]c2c1C(c1cc(C#CC3CN(C(=O)OC(C)(C)C)C3)cc(CO)c1)(C(C)C)C(C#N)=C(N)O2 (stereo not shown) ?
Key: 2.87

###

- experiment description: Pharmacokinetics study of KDG-0271 in male CD1 mice (Example 3)
- Assay type: in vivo
- assay conditions: male, mouse, plasma; CD1 mice, 1 mg/kg IV
measured parameter: AUC(0-inf)
Answer as a quantity: numeral, then unit.

Exercise: Quick one: AUC(0-inf) for Cc1n[nH]c2c1C(c1cc(C#CC3CN(C(=O)OC(C)(C)C)C3)cc(CO)c1)(C(C)C)C(C#N)=C(N)O2 (stereo not shown) ?
Key: 100 ng·h/mL

###

- experiment description: Pharmacokinetics study of KDG-0271 in male CD1 mice (Example 3)
- Assay type: in vivo
- assay conditions: mouse; male CD1 mice, plasma, 200 mg/kg PO, 1 h; read-out: Concentration PO_Mean
measured parameter: concentration at 1 h (ng/mL)
Field: numeric (ng/mL). Do not append units.

Exercise: Quick one: concentration at 1 h for Cc1n[nH]c2c1C(c1cc(C#CC3CN(C(=O)OC(C)(C)C)C3)cc(CO)c1)(C(C)C)C(C#N)=C(N)O2 (stereo not shown) [KDG-0271] ?
Key: 1070

###

- experiment description: Pharmacokinetics study of KDG-0320-0A in male CD1 mice (Example 1)
- Format: in vivo
- assay conditions: mouse, plasma, 50 mg/kg PO
Structures can show the parent of a compound that is named as a salt.
measured parameter: AUC(0-t)
Answer as a quantity: numeral, then unit.

Exercise: Quick one: AUC(0-t) for Cc1n[nH]c2c1C(c1cc(C#C[C@H]3CC[C@H](NC(=O)OC(C)(C)C)CC3)cc(CO)c1)(C(C)C)C(C#N)=C(N)O2 (stereo partly shown) [KDG-0320, hydrochloride] ?
Key: 1630 ng·h/mL
